tested on: K562 (lymphoma); test: alamarBlue viability assay, K562; format: cell-based; details: Homo sapiens, 72 hours
pEC50: −log10 of the molar value.
metric.name: pEC50

{"compound": "COc1ccc(NS(=O)(=O)c2cccc(CCCC(CCc3ccccc3)C(=O)O)c2)cc1OC (stereo not drawn)", "metric.name": "pEC50", "measured.value": 5.59}

I. O=C(O)C(CCc1ccccc1)Cc1ccccc1 (stereo not drawn)
II. Cc1ccc(NS(=O)(=O)c2cccc(CCCC(CCc3ccccc3)C(=O)O)c2)cc1 (stereo not drawn)
Quick one: lower pEC50, I or II ? Response format: the label of the selected entry. I

====

IC50: recorded values
target: human recombinant HDAC 2 (Homo sapiens, UniProt Q92769); experiment: HDAC inhibition assay (Fluor de Lys), HDAC2; details: inhibitor-protein incubation 2 hours, reaction 1 h 30 min, 37° C.
Sequence (Q92769 whole entry): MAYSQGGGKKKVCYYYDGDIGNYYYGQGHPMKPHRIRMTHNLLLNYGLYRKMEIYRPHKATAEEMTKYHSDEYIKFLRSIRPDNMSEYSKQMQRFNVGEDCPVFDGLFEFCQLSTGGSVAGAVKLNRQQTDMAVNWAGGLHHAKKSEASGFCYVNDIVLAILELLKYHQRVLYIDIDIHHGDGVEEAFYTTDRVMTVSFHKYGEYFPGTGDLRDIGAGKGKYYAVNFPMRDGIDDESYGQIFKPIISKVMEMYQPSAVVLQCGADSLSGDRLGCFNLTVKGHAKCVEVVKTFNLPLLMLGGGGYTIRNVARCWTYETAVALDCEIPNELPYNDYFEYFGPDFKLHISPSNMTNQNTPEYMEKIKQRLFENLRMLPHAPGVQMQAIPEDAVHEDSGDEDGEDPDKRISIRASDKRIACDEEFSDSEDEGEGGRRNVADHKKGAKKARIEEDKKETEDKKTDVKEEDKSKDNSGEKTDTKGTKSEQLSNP

The value of IC50 measured for the compound O=C(O)C(CCCc1ccccc1)CCc1ccc(Oc2ccc(C(F)(F)F)cc2)cc1 (centres unmarked) turned out to be 100 to 1000 µM

The value of IC50 measured for the compound COc1ccc(CCC(CCCc2ccccc2)C(=O)O)cc1 (centres unmarked) turned out to be 100 to 1000 µM

The value of IC50 measured for the compound N#Cc1ccccc1Oc1ccc(CCC(CCCc2ccccc2)C(=O)O)cc1 (centres unmarked) turned out to be 10 to 100 µM

The value of IC50 measured for the compound O=C(O)C(CCCc1cccc2ccccc12)CCc1ccc(-c2cccs2)cc1 (centres unmarked) turned out to be 100 to 1000 µM

The value of IC50 measured for the compound O=C(O)C(CCCc1ccccc1)CCC1CNc2ccccc21 (mixture of isomers) turned out to be 10 to 100 µM
